# target of assay: Tau aggregates in P301L-Tau-FL-GFP HEK293 cells (Homo sapiens, UniProt P10636, P618L)
# Construct: express full-length human tau T40 (2N4R) carrying the P301L mutation with a GFP tag; expressed in transfected cells
# Sequence (P10636 1-441 isoform P10636-8 P301L): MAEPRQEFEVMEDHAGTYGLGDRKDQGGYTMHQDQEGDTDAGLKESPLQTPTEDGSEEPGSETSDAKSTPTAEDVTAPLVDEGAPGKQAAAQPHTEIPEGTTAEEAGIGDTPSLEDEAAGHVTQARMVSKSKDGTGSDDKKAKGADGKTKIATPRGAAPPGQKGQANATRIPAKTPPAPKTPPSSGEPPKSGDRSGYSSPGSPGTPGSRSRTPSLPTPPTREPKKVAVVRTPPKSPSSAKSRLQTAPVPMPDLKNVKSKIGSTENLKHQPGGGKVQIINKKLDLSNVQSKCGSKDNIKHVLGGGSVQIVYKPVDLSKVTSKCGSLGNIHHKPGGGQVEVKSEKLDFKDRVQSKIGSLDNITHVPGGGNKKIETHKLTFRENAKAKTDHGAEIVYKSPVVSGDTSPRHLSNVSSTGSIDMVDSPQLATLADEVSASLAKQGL
# method summary: Tau degradation assay (APNmAb005 ELISA-based Tau aggregation assay)
# Format: cell-based
# assay setup: 1 μM of compound, 24 hours, P301L-Tau-FL-GFP HEK293 cells seeded with rTg4510 brain lysate; read-out: Activity (reduction of tau aggregates)
measured endpoint: inhibition at 1 µM

CN(C)c1ccc(-c2ccc(-c3nc4ccc(NCCOCCOCCOCCOCCOCCOc5ccc6c(c5)CN(C5CCC(=O)NC5=O)C6=O)cc4s3)cc2)cn1 (stereo not drawn) [Compound 160273] | < 10%

What inhibition at 1 µM value was documented for this compound, CN(C)c1ccc(-c2ccc(-c3nc4ccc(NCCOCCOc5ccc6c(c5)CN(C5CCC(=O)NC5=O)C6=O)cc4s3)cc2)cn1 (stereo not drawn) [Compound 160313] ?
< 10%

And then COc1ccc2nc(-c3ccc(-c4ccc(NCCOCCOc5ccc6c(c5)C(=O)N(C5CCC(=O)NC5=O)C6=O)nc4F)cc3)cn2c1 (stereo not drawn) [Compound 161215] , what is it?
10 to 20%

And then CN(C)c1ccc(-c2ccc(-c3cn4cccc(OCCOCCOc5ccc6c(c5)CN(C5CCC(=O)NC5=O)C6=O)c4n3)cc2)cn1 (stereo not drawn) [Compound 162842] , what is it?
> 20%

And then CN(C)c1ccc2nc(-c3ccc(-c4ccc(NCCOCCOCCOCCOCCOCCOc5ccc6c(c5)CN(C5CCC(=O)NC5=O)C6=O)nc4)cc3)sc2c1 (stereo not drawn) [Compound 160383] , what is it?
< 10%

And then COc1ccc2nc(-c3ccc(-c4ccc(NCCOCCOc5cccc6c5C(=O)N(C5CCC(=O)NC5=O)C6=O)nc4)cc3)sc2c1 (stereo not drawn) [Compound 177038] , what is it?
< 10%
